// values below are reported Kb
MEASURED TARGET: UniProtKB P56450
Sequence (P56450 whole entry): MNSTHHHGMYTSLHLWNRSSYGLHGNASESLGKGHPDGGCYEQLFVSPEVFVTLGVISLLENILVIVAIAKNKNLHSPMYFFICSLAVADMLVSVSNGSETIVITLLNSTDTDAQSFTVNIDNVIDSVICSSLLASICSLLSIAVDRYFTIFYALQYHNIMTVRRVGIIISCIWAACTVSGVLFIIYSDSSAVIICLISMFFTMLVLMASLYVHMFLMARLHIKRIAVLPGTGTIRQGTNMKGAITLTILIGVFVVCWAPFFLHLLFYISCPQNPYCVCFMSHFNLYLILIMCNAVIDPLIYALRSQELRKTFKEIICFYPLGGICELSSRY
MEASUREMENT NOTES: Antagonist activity at mouse melanocortin receptor 4 expressed in HEK293 cells assessed as inhibition of NDP-MSH-induced cAMP accumulation incubated for 2 hrs by cAMP Alpha-screen assay based Schild analysis
Type: functional, cell-based
APPLIED CONDITIONS: read-out: pA2 (converted)
Square brackets hold non-standard residues; d marks the D form. Peptide text beside a SMILES is read from it. dPhe(4-I) = N[C@H](Cc1ccc(I)cc1)C(=O)O; 2Nal = N[C@@H](Cc1ccc2ccccc2c1)C(=O)O; d2Nal = N[C@H](Cc1ccc2ccccc2c1)C(=O)O
Please respond with the number in nM and leave the unit unwritten.

Example molecules with recorded Kb:
CC(=O)N[C@H](Cc1ccc2ccccc2c1)C(=O)N[C@@H](CCCNC(=N)N)C(=O)N[C@H](Cc1ccc(I)cc1)C(=O)N[C@H](CCCCN)C(N)=O | 3.16
CC(=O)N[C@H](Cc1ccc2ccccc2c1)C(=O)N[C@@H](CCCNC(=N)N)C(=O)N[C@H](Cc1ccc(I)cc1)C(=O)N[C@@H](CCCNC(=N)N)C(N)=O (Ac-[d2Nal]R[dPhe(4-I)]R-NH2) | 2.51
CC(=O)N[C@H](Cc1ccc2ccccc2c1)C(=O)N[C@@H](CCCNC(=N)N)C(=O)N[C@@H](Cc1ccc2ccccc2c1)C(=O)N[C@H](Cc1ccc2ccccc2c1)C(N)=O (Ac-[d2Nal]R[2Nal][d2Nal]-NH2) | 200

For the next question, use this molecule.
What reported Kb corresponds to CC(=O)N[C@H](Cc1ccc2ccccc2c1)C(=O)N[C@@H](CCCNC(=N)N)C(=O)N[C@H](Cc1ccc2ccccc2c1)C(=O)N[C@H](CCCCN)C(N)=O (Ac-[d2Nal]R[d2Nal][dK]-NH2) on UniProtKB P56450? 6.31
